# Experimental details: Stability test (influencing factors: light, high temperature, high humidity)
# Format: physicochemical
# Condition context: high humidity 92.5% RH, Day 10
Experimental readout: property

# Molecule, Measured result
data = [
    ("CN([C@@H]1CCc2c(CC(=O)[O-])c3cccnc3n2C1)S(=O)(=O)c1ccc(F)cc1.[Li+] [Lithium salt hydrate]", "white powder"),
    ("CN([C@@H]1CCc2c(CC(=O)O)c3cccnc3n2C1)S(=O)(=O)c1ccc(F)cc1 (racemic)", "white powder"),
    ("CN([C@@H]1CCc2c(CC(=O)[O-])c3cccnc3n2C1)S(=O)(=O)c1ccc(F)cc1.[Na+] [Sodium salt hydrate]", "white powder"),
]

====

# Experimental details: Solubility test in media with different pH
# Format: physicochemical
# Condition context: pH 4.5 medium (potassium dihydrogen phosphate solution), pH 4.5, aqueous buffer, thermodynamic from solid; pH4.5 medium, room temperature of 25° C.; read-out: Solubility, pH = 4.5
Experimental readout: solubility (µg/mL)
Answers are plain numbers, in µg/mL.

Looking up CN([C@@H]1CCc2c(CC(=O)O)c3cccnc3n2C1)S(=O)(=O)c1ccc(F)cc1 (racemic) [Compound A] , I see its solubility listed as 1.67

====

Give total impurity % for every item shown.
# Experimental details: Stability test (influencing factors: light, high temperature, high humidity)
# Assay type: physicochemical
# Condition context: Day 0
Answers are plain numbers, in %.

Some entries whose results are on file:
# Compound, Experimental readout, Uom, Measured result
measured = [
    ("CN([C@@H]1CCc2c(CC(=O)O)c3cccnc3n2C1)S(=O)(=O)c1ccc(F)cc1 (racemic) [Compound A]", "total impurity %", "%", 0.32),
    ("CN([C@@H]1CCc2c(CC(=O)[O-])c3cccnc3n2C1)S(=O)(=O)c1ccc(F)cc1.[K+] [Potassium salt hydrate]", "total impurity %", "%", 0.49),
    ("CN([C@@H]1CCc2c(CC(=O)[O-])c3cccnc3n2C1)S(=O)(=O)c1ccc(F)cc1.[Li+] [Lithium salt hydrate]", "total impurity %", "%", 0.87),
]

Looking up CN([C@@H]1CCc2c(CC(=O)[O-])c3cccnc3n2C1)S(=O)(=O)c1ccc(F)cc1.[Na+] [Sodium salt hydrate] , I see its total impurity % listed as 0.07

====

Give maximum single impurity % for every item shown.
# Experimental details: Stability test (influencing factors: light, high temperature, high humidity)
# Format: physicochemical
# Condition context: high temperature 60° C., Day 5
# Protocol: Test process: An appropriate amount of each test sample was placed on a clean watch glass without a lid and then placed under the conditions of light 4500 lx±500 lx, high temperature of 60° C., high humidity of 92.5% RH for 5 days and 10 days, respectively. The properties and related substances were determined and the results were compared with the results at day 0 to observe the stability. The test method for related substances was as follows. […]
Answers are plain numbers, in %.

# Molecule, maximum single impurity % [%]
data = [
    ("CN([C@@H]1CCc2c(CC(=O)[O-])c3cccnc3n2C1)S(=O)(=O)c1ccc(F)cc1.[K+] [Potassium salt hydrate]", 0.34),
    ("CN([C@@H]1CCc2c(CC(=O)[O-])c3cccnc3n2C1)S(=O)(=O)c1ccc(F)cc1.[Li+] [Lithium salt hydrate]", 0.56),
    ("CN([C@@H]1CCc2c(CC(=O)O)c3cccnc3n2C1)S(=O)(=O)c1ccc(F)cc1 (racemic)", 0.07),
]

Kindly review the next molecule as well.
Looking up CN([C@@H]1CCc2c(CC(=O)[O-])c3cccnc3n2C1)S(=O)(=O)c1ccc(F)cc1.[Na+] [Sodium salt hydrate] , I see its maximum single impurity % listed as 0.02

====

# Experimental details: Stability test (influencing factors: light, high temperature, high humidity)
# Format: physicochemical
# Condition context: high humidity 92.5% RH, Day 5

# Compound, property
measured = [
    ("CN([C@@H]1CCc2c(CC(=O)[O-])c3cccnc3n2C1)S(=O)(=O)c1ccc(F)cc1.[Li+] [Lithium salt hydrate]", "white powder"),
    ("CN([C@@H]1CCc2c(CC(=O)[O-])c3cccnc3n2C1)S(=O)(=O)c1ccc(F)cc1.[Na+] [Sodium salt hydrate]", "white powder"),
    ("CN([C@@H]1CCc2c(CC(=O)O)c3cccnc3n2C1)S(=O)(=O)c1ccc(F)cc1 (racemic) [Compound A]", "white powder"),
]

====

# Experimental details: Stability test (influencing factors: light, high temperature, high humidity)
# Type: physicochemical
# Condition context: light condition 4500 lx±500 lx, Day 10
Give total impurity % for every item shown.
Give the number first and the unit second.

Some entries whose results are on file:
# Compound, total impurity %
rows = [
    ("CN([C@@H]1CCc2c(CC(=O)[O-])c3cccnc3n2C1)S(=O)(=O)c1ccc(F)cc1.[K+] [Potassium salt hydrate]", "0.88%"),
    ("CN([C@@H]1CCc2c(CC(=O)[O-])c3cccnc3n2C1)S(=O)(=O)c1ccc(F)cc1.[Na+] [Sodium salt hydrate]", "0.26%"),
    ("CN([C@@H]1CCc2c(CC(=O)[O-])c3cccnc3n2C1)S(=O)(=O)c1ccc(F)cc1.[Li+] [Lithium salt hydrate]", "1.21%"),
]

Kindly review the next compound as well.
Looking up CN([C@@H]1CCc2c(CC(=O)O)c3cccnc3n2C1)S(=O)(=O)c1ccc(F)cc1 (racemic) [Compound A] , I see its total impurity % listed as 15.25%

====

# Experimental details: Solubility test in media with different pH
# Type: physicochemical
# Condition context: pH 6.8, aqueous buffer, thermodynamic from solid; pH6.8 medium, room temperature of 25° C.; read-out: Solubility, pH = 6.8
Experimental readout: solubility
Give the number first and the unit second.

Looking up CN([C@@H]1CCc2c(CC(=O)O)c3cccnc3n2C1)S(=O)(=O)c1ccc(F)cc1 (racemic) , I see its solubility listed as 2 µg/mL

====

Give total impurity % for every item shown.
# Experimental details: Stability test (influencing factors: light, high temperature, high humidity)
# Type: physicochemical
# Condition context: light condition 4500 lx±500 lx, Day 5
Give bare numbers, in %.

Some entries whose results are on file:
# Compound, total impurity % (%)
data = [
    ("CN([C@@H]1CCc2c(CC(=O)O)c3cccnc3n2C1)S(=O)(=O)c1ccc(F)cc1 (racemic) [Compound A]", 5.28),
    ("CN([C@@H]1CCc2c(CC(=O)[O-])c3cccnc3n2C1)S(=O)(=O)c1ccc(F)cc1.[Li+] [Lithium salt hydrate]", 0.93),
    ("CN([C@@H]1CCc2c(CC(=O)[O-])c3cccnc3n2C1)S(=O)(=O)c1ccc(F)cc1.[Na+] [Sodium salt hydrate]", 0.16),
]

Looking up CN([C@@H]1CCc2c(CC(=O)[O-])c3cccnc3n2C1)S(=O)(=O)c1ccc(F)cc1.[K+] [Potassium salt hydrate] , I see its total impurity % listed as 0.72

====

Give maximum single impurity % for every item shown.
# Experimental details: Stability test (influencing factors: light, high temperature, high humidity)
# Format: physicochemical
# Condition context: high humidity 92.5% RH, Day 5
Numbers only, in %.

# Molecule, Uom, Measured result
data = [
    ("CN([C@@H]1CCc2c(CC(=O)[O-])c3cccnc3n2C1)S(=O)(=O)c1ccc(F)cc1.[Na+] [Sodium salt hydrate]", "%", 0.02),
]

Can you give me maximum single impurity % for all of these, one by one?
1. CN([C@@H]1CCc2c(CC(=O)[O-])c3cccnc3n2C1)S(=O)(=O)c1ccc(F)cc1.[Li+] [Lithium salt hydrate]
2. CN([C@@H]1CCc2c(CC(=O)O)c3cccnc3n2C1)S(=O)(=O)c1ccc(F)cc1 (racemic) [Compound A]
3. CN([C@@H]1CCc2c(CC(=O)[O-])c3cccnc3n2C1)S(=O)(=O)c1ccc(F)cc1.[K+] [Potassium salt hydrate]

*A*
1: 0.55; 2: 0.08; 3: 0.34

====

# Experimental details: Stability test (influencing factors: light, high temperature, high humidity)
# Assay type: physicochemical
# Condition context: high humidity 92.5% RH, Day 10
Experimental readout: total impurity % (%)
Answers are plain numbers, in %.

Can you give me total impurity % for all of these, one by one?
1. CN([C@@H]1CCc2c(CC(=O)[O-])c3cccnc3n2C1)S(=O)(=O)c1ccc(F)cc1.[K+] [Potassium salt hydrate]
2. CN([C@@H]1CCc2c(CC(=O)[O-])c3cccnc3n2C1)S(=O)(=O)c1ccc(F)cc1.[Na+] [Sodium salt hydrate]
3. CN([C@@H]1CCc2c(CC(=O)O)c3cccnc3n2C1)S(=O)(=O)c1ccc(F)cc1 (racemic) [Compound A]
4. CN([C@@H]1CCc2c(CC(=O)[O-])c3cccnc3n2C1)S(=O)(=O)c1ccc(F)cc1.[Li+] [Lithium salt hydrate]

*A*
1. 0.48
2. 0.06
3. 0.26
4. 0.76

====

# Experimental details: Stability test (influencing factors: light, high temperature, high humidity)
# Format: physicochemical
# Condition context: Day 0
Experimental readout: maximum single impurity % (%)
Answers are plain numbers, in %.

Some entries whose results are on file:
# Compound, maximum single impurity %, %
records = [
    ("CN([C@@H]1CCc2c(CC(=O)[O-])c3cccnc3n2C1)S(=O)(=O)c1ccc(F)cc1.[K+] [Potassium salt hydrate]", 0.34),
    ("CN([C@@H]1CCc2c(CC(=O)[O-])c3cccnc3n2C1)S(=O)(=O)c1ccc(F)cc1.[Li+] [Lithium salt hydrate]", 0.59),
    ("CN([C@@H]1CCc2c(CC(=O)O)c3cccnc3n2C1)S(=O)(=O)c1ccc(F)cc1 (racemic) [Compound A]", 0.08),
]

Kindly review the next compound as well.
Looking up CN([C@@H]1CCc2c(CC(=O)[O-])c3cccnc3n2C1)S(=O)(=O)c1ccc(F)cc1.[Na+] [Sodium salt hydrate] , I see its maximum single impurity % listed as 0.03

Values from patent US20220098197A1
